# TEST SYSTEM: Luciferin 4-monooxygenase (Photinus pyralis)
# MEASUREMENT DESCRIPTION: FLuc inhibitory activity for the follow-up compounds in a biochemical assay with 1mM ATP
# STUDY CONDITIONS: purified P. pyralis luciferase, luminescence; series mostly up to 57.5 µM
# Description: NCGC Assay Overview: Firefly (Photinus pyralis) luciferase is one of the most commonly used transcriptional reporters. It is considered one of the more dynamically responsive reporters - that is, responsive to changes in reporter transcription - as it requires no post-translational modifications and is enzymatically active directly after protein synthesis (Wood, 1998). […]
Inconclusive results are not listed. Calls of active or inactive are those of the source. The call rests on the fitted dose curve; in most records, active means well fitted inhibition curve with a large enough effect; inconclusive means small, poorly fitted or top-dose-only effect; inactive means flat fitted curve, though single readings scatter.
A correct response names exactly one class from active, inactive

Below are worked cases with known answers.
- SMILES CODE: "COc1ccc2nc(NC(=O)C3CCN(S(=O)(=O)c4cccnc4)CC3)sc2c1"
  TEST SYSTEM: "Luciferin 4-monooxygenase (Photinus pyralis)"
  ASSIGNED CLASS: "inactive"
- SMILES CODE: "COc1ccc(CC(=O)Nc2ccc(-c3nc4ccccc4s3)c(C)c2)cc1"
  TEST SYSTEM: "Luciferin 4-monooxygenase (Photinus pyralis)"
  ASSIGNED CLASS: "active"
- SMILES CODE: "Nc1ccc(-c2nc3ccc(C(=O)O)cc3s2)cc1"
  TEST SYSTEM: "Luciferin 4-monooxygenase (Photinus pyralis)"
  ASSIGNED CLASS: "active"
- SMILES CODE: "CCOc1ccc2nc(NC(=O)c3ccccn3)sc2c1"
  TEST SYSTEM: "Luciferin 4-monooxygenase (Photinus pyralis)"
  ASSIGNED CLASS: "active"
- SMILES CODE: "CC(C)(C)NC(=O)c1ccccc1-c1nc2ccccc2s1"
  TEST SYSTEM: "Luciferin 4-monooxygenase (Photinus pyralis)"
  ASSIGNED CLASS: "inactive"
- SMILES CODE: "O=C(Nc1ccccc1-c1nc2ccccc2s1)c1ccc(Br)o1"
  TEST SYSTEM: "Luciferin 4-monooxygenase (Photinus pyralis)"
  ASSIGNED CLASS: "inactive"

// return assay outcome for `CCCOc1cccc(C(=O)Nc2ccc(-c3nc4ccccc4s3)c(Cl)c2)c1`
inactive

Could you please tell me the result logged for `O=C(Nc1ccccc1C(=O)O)c1cccc(S(=O)(=O)N2CCCC2)c1` in this assay?
active

Lab log entry: `COc1ccccc1C(=O)Nc1ccc(C(=O)Nc2ccccc2C(=O)O)cc1` — outcome as called in the assay?
inactive

What classification did `O=C(Cc1ccccc1)Nc1ccc(C(=O)Nc2ccccc2C(=O)O)cc1` end up with in this test?
active

Which result was noted for this compound in the test: `COc1ccc(C(=O)Nc2cccc(C(=O)O)c2)cc1S(=O)(=O)N1CCCC1`
active
